FYI, the data here is from paper PMC5382271.

Tested on: Seb1 SUMO-RRM388-540 F445A
Assay: FA, SUMO-RRM F445A binding to RNA
Design: species or system S. pombe
Details: fluorescence anisotropy; SUMO-RRM F445A; 40 nM FAM-RNA; Tris-HCl pH 8.0, 100 mM NaCl, 2 mM MgCl2; 25 °C; three technical replicates
Description: Recombinant WT and mutated RRM388−540 of Seb1 with an N-terminal His6-SUMO tag were expressed from modified pOPINS3C expression vector[69] in pLysS E. coli strain. […] For Seb1-CID1–152, binding to 75 nM of two-repeat CTD peptides containing an N-terminal 5′-fluorescein amidite (FAM)-tag (Peptides&elephants, Potsdam, Germany) was determined in 25 mM HEPES pH 7.3, 200 mM NaCl and 1 mM EDTA. […]
pKd: −log10 of the molar value.

biosequence	pKd
AUUAGUAAAA (chemistry not fully specified) [RNA: AUUAGUAAAA]	< 3.00
